Exercise: state measured pEC50 for each of the compounds provided.
- System: HEL
- method: Concentration required to inhibit herpes simplex virus type 2 induced cytopathogenicity in HEL cells by 50%
- Assay type: functional, cell-based
- experimental conditions: Homo sapiens
pEC50: −log10 of the molar value.

Example results:
{"columns": ["compound", "target", "pEC50"],
 "data": [
  ["CCCCCCCCc1cc2cn(COCCO)c(O)nc-2n1", "HEL", "< 4.10"],
  ["CCCCCCc1cc2cn(COCCO)c(=O)nc2o1", "HEL", "< 4.80"],
  ["CCCCCCCCc1cc2cn(COCCO)c(=O)nc2o1", "HEL", "< 4.80"],
  ["O=c1nc2occc2cn1COCCO", "HEL", "< 3.40"],
  ["CCCCCCCc1cc2cn(COCCO)c(O)nc-2n1", "HEL", "< 3.70"]
]}

Each compound below has a recorded value; state its pEC50.
1. CCCCCCCCCCCc1cc2cn(COCCO)c(=O)nc2o1
2. O=c1[nH]c(=O)n([C@H]2C[C@H](O)[C@@H](CO)O2)cc1/C=C/Br [BRIVUDINE]
3. CCCCCCCCCc1cc2cn(COCCO)c(O)nc-2n1
4. C#Cc1cn(COCCO)c(=O)[nH]c1=O
5. CCCCCCCCCCCc1cc2cn(COCCO)c(O)nc-2n1
6. CCCCCCCC#Cc1cc2cn(COCCO)c(=O)nc2o1
7. CCCCCCCCCCc1cc2cn(COCCO)c(=O)nc2o1

["< 4.40", 3.52, "< 4.10", "< 3.40", "< 4.40", "< 4.40", "< 4.80"]
